Let's go through some recorded IC50 values for PI3Kγ (Homo sapiens, UniProt P48736) together.

The reported PI3Kγ (Homo sapiens, UniProt P48736) IC50 of Cn1ncc2c(-c3cccc4[nH]ccc34)nc(N3CCOCC3)nc21 is > 10 µM

###

# key: entry, value: IC50
# test.system: PI3Kδ (Homo sapiens, UniProt O00329)
# Sequence (O00329 whole entry, species assumed): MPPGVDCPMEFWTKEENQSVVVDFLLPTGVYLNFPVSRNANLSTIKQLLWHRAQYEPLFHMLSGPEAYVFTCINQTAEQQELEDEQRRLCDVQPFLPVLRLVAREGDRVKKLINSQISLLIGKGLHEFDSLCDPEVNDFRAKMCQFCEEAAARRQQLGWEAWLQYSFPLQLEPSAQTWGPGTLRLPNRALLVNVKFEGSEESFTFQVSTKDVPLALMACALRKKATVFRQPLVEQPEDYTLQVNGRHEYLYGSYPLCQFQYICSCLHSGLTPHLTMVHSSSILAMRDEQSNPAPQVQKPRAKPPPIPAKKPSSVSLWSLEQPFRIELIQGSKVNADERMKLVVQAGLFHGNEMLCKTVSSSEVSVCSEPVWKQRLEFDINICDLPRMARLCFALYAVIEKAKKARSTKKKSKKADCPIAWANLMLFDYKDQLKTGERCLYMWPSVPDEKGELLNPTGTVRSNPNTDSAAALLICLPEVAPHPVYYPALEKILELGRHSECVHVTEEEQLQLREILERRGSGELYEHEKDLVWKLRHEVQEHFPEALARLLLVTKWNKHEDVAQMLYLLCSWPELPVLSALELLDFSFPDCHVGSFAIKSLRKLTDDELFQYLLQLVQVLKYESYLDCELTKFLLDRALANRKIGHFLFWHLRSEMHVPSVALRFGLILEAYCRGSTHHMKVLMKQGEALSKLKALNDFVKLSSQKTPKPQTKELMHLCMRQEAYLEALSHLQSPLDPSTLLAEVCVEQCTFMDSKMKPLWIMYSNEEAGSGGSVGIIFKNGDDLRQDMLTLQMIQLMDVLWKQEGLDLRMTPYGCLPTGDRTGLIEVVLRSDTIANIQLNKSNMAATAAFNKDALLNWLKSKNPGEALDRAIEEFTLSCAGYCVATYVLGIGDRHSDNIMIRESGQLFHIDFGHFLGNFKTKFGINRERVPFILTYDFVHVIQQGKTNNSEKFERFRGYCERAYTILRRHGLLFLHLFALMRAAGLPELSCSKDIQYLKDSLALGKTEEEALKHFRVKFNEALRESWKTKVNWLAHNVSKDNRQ
# Sequence (P27986 whole entry partner, species assumed): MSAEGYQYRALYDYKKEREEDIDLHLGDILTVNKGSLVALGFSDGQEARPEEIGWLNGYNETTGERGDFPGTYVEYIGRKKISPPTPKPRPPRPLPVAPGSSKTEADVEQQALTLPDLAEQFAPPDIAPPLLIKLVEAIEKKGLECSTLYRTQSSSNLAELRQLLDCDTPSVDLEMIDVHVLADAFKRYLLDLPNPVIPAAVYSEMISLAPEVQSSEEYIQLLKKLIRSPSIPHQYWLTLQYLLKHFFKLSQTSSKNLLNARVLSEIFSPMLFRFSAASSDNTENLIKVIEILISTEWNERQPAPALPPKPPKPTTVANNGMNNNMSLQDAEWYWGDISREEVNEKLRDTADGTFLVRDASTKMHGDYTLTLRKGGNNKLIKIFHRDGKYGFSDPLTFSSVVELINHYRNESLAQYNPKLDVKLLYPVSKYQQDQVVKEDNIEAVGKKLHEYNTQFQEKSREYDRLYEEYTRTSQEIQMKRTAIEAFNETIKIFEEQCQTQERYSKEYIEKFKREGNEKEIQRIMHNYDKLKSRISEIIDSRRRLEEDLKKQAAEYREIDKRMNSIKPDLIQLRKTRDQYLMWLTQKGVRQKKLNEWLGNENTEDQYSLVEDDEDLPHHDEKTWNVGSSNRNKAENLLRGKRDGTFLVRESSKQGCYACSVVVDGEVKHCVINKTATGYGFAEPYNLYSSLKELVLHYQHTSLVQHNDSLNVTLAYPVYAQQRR

// IC50 lookup, compound = Cn1ncc2c(-c3cccc4[nH]ncc34)nc(N3CCOCC3)nc21 , result: 0.1 to 10 µM

// IC50 lookup, compound = Cn1ncc2c(-c3ccc4[nH]cnc4c3)nc(N3CCOCC3)nc21 , result: 0.1 to 10 µM

// IC50 lookup, compound = Nc1ncc(-c2nc(N3CCOCC3)nc3c2cnn3CC(=O)N2CCCC2)cn1 , result: 0.1 to 10 µM

// IC50 lookup, compound = Nc1ncc(-c2nc(N3CCOCC3)nc3c2cnn3CC(=O)N2CCOCC2)cn1 , result: 0.1 to 10 µM

New cases:
// IC50 lookup, compound = Cn1ncc2c(-c3ccc4cc[nH]c4c3)nc(N3CCOCC3)nc21 , result: > 10 µM

Source listed as patent US8741896B2.
